Numbers sourced from patent US20260034123A1.

Target: CDK2/Cyclin E1 (Homo sapiens, UniProt P24941)
Assay: ADP-Glo Luminescent Kinase Assay (CDK2/E1-37C)
Format: biochemical
Conditions: 0.18 nM CDK2/Cyclin E1, 100 μM ATP, Histone H1, 37° C.; read-out: ADPGLO (CDK2/E1-37C): IC50
pIC50: −log10 of the molar value.
# maps each entry to its pIC50

{"columns": ["compound", "pIC50"],
 "data": [
  ["CC1(C)C[C@@H]1C(=O)N1CC2(CN(C(=O)c3cnn(Cc4ccc(F)cc4)c3)CC2COCc2cccc(C3CCC(F)(F)CC3)c2-c2nn[nH]n2)C1 (stereo partly drawn) [I′-70]", "≥ 6.30"],
  ["O=C(O)c1c(COC[C@@H]2CN(C(=O)c3cnn(Cc4ccc(F)cc4)c3)CC23CN(C(=O)C24CC(C2)C4)C3)cccc1C1CCC(F)(F)CC1 [I′-17]", "≥ 6.30"],
  ["CC1(C)C[C@@H]1C(=O)N1CC2(CN(C(=O)c3cncs3)CC2COCC(=O)N2CCC(c3ccc(C(=O)O)cc3OC3CCCCC3)CC2)C1 (stereo partly drawn) [Compound I-56]", "5.00 to 5.30"],
  ["CC1(C)C[C@@H]1C(=O)N1CC2(CN(C(=O)c3cnn(Cc4ccc(F)cc4)c3)CC2/C=C\\Cc2cccc(C3CCC(F)(F)CC3)c2C(=O)O)C1 (stereo partly drawn) [I′-69]", "< 5.00"],
  ["N#Cc1ccc(Cn2cc(C(=O)N3CC(C(=O)NS(=O)(=O)c4cccc(C5(C(F)(F)F)CC5)c4)C4(C3)CN(C(=O)C3(C(F)(F)F)CC3)C4)cn2)cc1 (stereo not drawn) [Compound I-59]", "< 5.00"],
  ["CC(C)(C(=O)N1CC2(CN(C(=O)c3cnn(Cc4ccc(F)cc4)c3)C[C@H]2COCc2cccc(C3CCC(C(F)(F)F)CC3)c2C(=O)O)C1)C(F)(F)F (stereo partly drawn) [Compound I-94]", "≥ 6.30"]
]}

====

Target: CDK2/Cyclin E1 (Homo sapiens, UniProt P24941)
Assay: ADP-Glo Luminescent Kinase Assay (CDK2/E1-37C)
Type: biochemical
Settings: 0.18 nM CDK2/Cyclin E1, 100 μM ATP, Histone H1, 37° C.; read-out: ADPGLO (CDK2/E1-37C): IC50
pIC50: −log10 of the molar value.

{"columns": ["query smiles", "pIC50"],
 "data": [
  ["CC(C)(C(=O)N1CC2(CN(C(=O)c3cnn(Cc4ccc(F)c(F)c4)c3)C[C@H]2COCc2cccc(C3CCC(F)(F)CC3)c2C(=O)O)C1)C(F)(F)F", "≥ 6.30"],
  ["O=C(O)c1c(COC[C@@H]2CN(C(=O)c3cnn(Cc4ccc(F)cc4)c3)CC23CN(C(=O)C2CCOCC2)C3)cccc1C1CCC(F)(F)CC1", "5.30 to 6.30"],
  ["O=C(O)c1c(COC[C@@H]2CN(c3cc(F)c(F)c4[nH]ccc34)CC23CN(C(=O)C2(C(F)(F)F)CC2)C3)cccc1C1CCC(F)(F)CC1", "< 5.00"],
  ["CC1(C)C[C@@H]1C(=O)N1CC2(CN(C(=O)c3cncs3)C[C@H]2COCc2cccc(C3CCOCC3)c2)C1", "< 5.00"],
  ["CC(C)(C(=O)N1CC2(CN(C(=O)c3cnn(Cc4cc(F)c(F)c(F)c4)c3)C[C@H]2COCc2cccc(C3CCC(F)(F)CC3)c2C(=O)O)C1)C(F)(F)F", "≥ 6.30"],
  ["CC1(C)C[C@@H]1C(=O)N1CC2(CN(C(=O)c3cncs3)C[C@H]2COCc2ccn(C3CCCC3)n2)C1", "< 5.00"]
]}
